# System: zymostenol accumulation (EBP) in EpiSC-derived OPCs
# measurement-description: GC/MS-based sterol profiling, zymostenol accumulation in EpiSC-derived OPCs
# Format: cell-based, mouse
# condition-set: Mus musculus, 24 h, EpiSC-derived OPCs, 24 hr, 8 doses from 0.15 nM to 333 nM; read-out: Mouse Zymostenol GCMS EC50
value-type: EC50 (nM)

Reference set (3 entries):
compound	result-unit	EC50
CC(C)n1nc(-c2ccccc2F)cc1[C@H]1[C@@H]2C[C@H](N3CCCOCC3)C[C@@H]21	nM	5.41
CC(C)n1nc(-c2cnc(C(F)(F)F)nc2)nc1[C@H]1[C@@H]2C[C@H](N3CCOC[C@H]3C)C[C@@H]21	nM	2.07
CC(C)n1nc(-c2cncc(C(F)(F)F)c2)cc1[C@H]1[C@@H]2C[C@H](N3CCOC(C)(C)C3)C[C@@H]21	nM	52

(P) CC(C)n1nc(-c2cnc(C(F)(F)F)nc2)nc1[C@@H]1CC[C@H](N2CCO[C@@H](C)C2)C1
(Q) CC(C)n1nc(-c2cccc(F)c2)cc1[C@H]1[C@@H]2C[C@@H](N3CCCOCC3)C[C@@H]21
Lab note: check whether P or Q shows the higher recorded EC50. // return label of chosen record
P
(P: 946 nM, Q: 13.3 nM)

(I) CC(C)n1nc(-c2cncc(C(F)(F)F)c2)cc1[C@H]1[C@@H]2C[C@@H](N3C[C@H]4C[C@@H]3CO4)C[C@@H]21 (single isomer, unassigned)
(II) CC[C@@H]1CN([C@@H]2CC[C@@H](c3nc(-c4cnc(C(F)(F)F)nc4)nn3C(C)C)C2)CCO1
API: POST /compare with I and II ; response names the item with higher EC50. Respond using the label that marks the chosen record.
I
(I: 30 nM, II: 13.4 nM)
